Origin of the recorded values: PubChem BioAssay (NCI)

# test_summary: NCI Yeast Anticancer Drug Screen. Data for the rad50 strain (AID 155);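 further: 0% = growth of vehicle-only cultures of the same strain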
# condition_details: S. cerevisiae rad50 strain growth inhibition; at 50.0 µM; hits give high values
# Protocol: Growth inhibition of yeast strains with defined genetic alterations is measured as a screen for potential anti-cancer activity. Selected strains with alterations in DNA damage repair or cell cycle control were exposed to compounds and growth inhibition was measured relative to vehicle treated controls. The strain used in this assay is rad50
About 79,000 compounds went through this panel and 15% of them were active in at least one assay; those are over-represented in the sample as a whole.
experimental_endpoint: growth inhibition (%)
State just the number; it will be interpreted in %.

Requested read-out: growth inhibition. Entry: Cc1ccc2nc(NS(=O)(=O)c3cc(C)c(Cl)cc3S)[nH]c2c1
9.35

State the recorded growth inhibition for this entry: C(=C\C(SCc1ccccc1)SCc1ccccc1)/c1ccccc1
-43
